study_system: human delta-like ligand 3 (DLL3) on SHP77 cells (human) (UniProt Q9NYJ7)
Sequence (Q9NYJ7 27-618, stated change not applied): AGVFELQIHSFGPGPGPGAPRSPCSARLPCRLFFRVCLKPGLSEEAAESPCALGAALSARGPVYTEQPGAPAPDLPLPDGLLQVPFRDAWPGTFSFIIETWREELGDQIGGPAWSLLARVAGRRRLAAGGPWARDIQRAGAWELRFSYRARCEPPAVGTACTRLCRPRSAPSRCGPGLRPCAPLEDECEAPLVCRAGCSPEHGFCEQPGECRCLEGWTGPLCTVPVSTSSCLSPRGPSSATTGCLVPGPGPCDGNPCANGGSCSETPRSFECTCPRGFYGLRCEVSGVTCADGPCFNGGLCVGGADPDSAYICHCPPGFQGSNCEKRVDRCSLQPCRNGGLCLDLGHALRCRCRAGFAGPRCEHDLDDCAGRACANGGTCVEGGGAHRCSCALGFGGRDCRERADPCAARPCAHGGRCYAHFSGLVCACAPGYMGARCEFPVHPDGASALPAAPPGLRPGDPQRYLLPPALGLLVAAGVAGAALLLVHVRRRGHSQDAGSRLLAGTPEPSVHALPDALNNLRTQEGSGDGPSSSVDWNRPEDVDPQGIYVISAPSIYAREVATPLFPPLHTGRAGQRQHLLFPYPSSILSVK
assay_details: FACS on SHP77 cells
Items are presented alongside their recorded MFI at 20 nM.
Kindly provide the numeric value in MFI only, without the unit symbol.

Qu. Which measured MFI at 20 nM value corresponds to Hab008L3H5-hFc (scFv, part only; not given: scFv linker and human IgG1 Fc, V domains shown, not shown: another chain or arm of the molecule; a dimerising Fc or GST; small tags and cut ends) VL: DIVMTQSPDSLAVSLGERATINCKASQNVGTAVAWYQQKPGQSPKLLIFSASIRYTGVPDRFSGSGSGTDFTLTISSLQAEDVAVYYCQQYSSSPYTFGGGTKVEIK VH: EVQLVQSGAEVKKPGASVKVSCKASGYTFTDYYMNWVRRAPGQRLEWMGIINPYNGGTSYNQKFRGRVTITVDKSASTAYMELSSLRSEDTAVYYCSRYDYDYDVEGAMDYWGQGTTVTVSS ?
Ans. 634

Qu. Which measured MFI at 20 nM value corresponds to Hab014VL1VH2-hFc (scFv, part only; not given: VL-VH linker and human IgG1 Fc, V domains shown, not shown: another chain or arm of the molecule; a dimerising Fc or GST; small tags and cut ends) VL: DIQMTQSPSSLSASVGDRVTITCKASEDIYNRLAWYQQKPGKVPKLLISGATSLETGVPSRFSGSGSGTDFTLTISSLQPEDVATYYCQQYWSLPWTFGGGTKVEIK VH: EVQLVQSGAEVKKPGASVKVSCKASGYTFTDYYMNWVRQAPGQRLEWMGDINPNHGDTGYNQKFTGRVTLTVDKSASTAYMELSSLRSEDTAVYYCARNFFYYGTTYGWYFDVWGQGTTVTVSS ?
Ans. 818

Qu. Which measured MFI at 20 nM value corresponds to Hab006VL4VH2-hFc (scFv, part only; not given: scFv linker and human IgG1 Fc, V domains shown, not shown: another chain or arm of the molecule; a dimerising Fc or GST; small tags and cut ends) VL: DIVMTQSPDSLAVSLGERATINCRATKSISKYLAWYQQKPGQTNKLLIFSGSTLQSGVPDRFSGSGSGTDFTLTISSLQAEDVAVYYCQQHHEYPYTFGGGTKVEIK VH: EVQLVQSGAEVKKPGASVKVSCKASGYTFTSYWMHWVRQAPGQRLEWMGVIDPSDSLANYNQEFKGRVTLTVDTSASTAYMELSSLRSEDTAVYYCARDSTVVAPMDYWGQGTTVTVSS ?
Ans. 1620
